assayed_target: the molecule itself
method: dynamic light scattering
parameter: stoichiometry N
No unit in the answer, please; the number alone is enough.

Given the protein alanine:glyoxylate aminotransferase variant S158L on the major allele (enzyme, human, UniProt P21549 1-392, looked up, holo-form: pyridoxal 5'-phosphate in Schiff base linkage with the lysine at position 209; apo-form: without PLP) MASHKLLVTPPKALLKPLSIPNQLLLGPGPSNLPPRIMAAGGLQMIGSMSKDMYQIMDEIKEGIQYVFQTRNPLTLVISGSGHCALEAALVNVLEPGDSFLVGANGIWGQRAVDIGERIGARVHPMTKDPGGHYTLQEVEEGLAQHKPVLLFLTHGELSTGVLQPLDGFGELCHRYKCLLLVDSVASLGGTPLYMDRQGIDILYSGSQKALNAPPGTSLISFSDKAKKKMYSRKTKPFSFYLDIKWLANFWGCDDQPRMYHHTIPVISLYSLRESLALIAEQGLENSWRQHREAAAYLHGRLQALGLQLFVKDPALRLPTVTTVAVPAGYDWRDIVSYVIDHFDIEIMGGLGPSTGKVLRIGLLGCNATRENVDRVTEALRAALQHCPKKKL , what is its reported stoichiometry N?
2

Given the protein alanine:glyoxylate aminotransferase variant S218L on the major allele (enzyme, human, UniProt P21549 1-392, looked up, holo-form: pyridoxal 5'-phosphate in Schiff base linkage with the lysine at position 209; apo-form: without PLP) MASHKLLVTPPKALLKPLSIPNQLLLGPGPSNLPPRIMAAGGLQMIGSMSKDMYQIMDEIKEGIQYVFQTRNPLTLVISGSGHCALEAALVNVLEPGDSFLVGANGIWGQRAVDIGERIGARVHPMTKDPGGHYTLQEVEEGLAQHKPVLLFLTHGESSTGVLQPLDGFGELCHRYKCLLLVDSVASLGGTPLYMDRQGIDILYSGSQKALNAPPGTLLISFSDKAKKKMYSRKTKPFSFYLDIKWLANFWGCDDQPRMYHHTIPVISLYSLRESLALIAEQGLENSWRQHREAAAYLHGRLQALGLQLFVKDPALRLPTVTTVAVPAGYDWRDIVSYVIDHFDIEIMGGLGPSTGKVLRIGLLGCNATRENVDRVTEALRAALQHCPKKKL , what is its reported stoichiometry N?
2
